Values were extracted from paper PMC8778091.

# system tested: E. coli DAla:D-Ala ligase (Ddl-B) (Escherichia coli)
# Construct: purchased ProFoldin DDA100KE
# test description: Ddl-B enzymatic activity assay (inorganic phosphate, absorbance 650 nm)
# Assay type: biochemical
readout type: Ki (µM)
A number alone suffices; assume µM.

INSERT INTO results (given_smiles, readout_type, value) VALUES
  ('Cc1cc(O)c2c(c1)C(=O)c1cccc(O)c1C2=O', 'Ki', 105);

Moving on to another compound below.
Query: I'd like to know its Ki. The compound in question is `O=C(O)c1cc(O)c2c(c1)C(=O)c1cccc(O)c1C2=O`
Result: 133
